tested on: CCRIS mutagenicity, Ames/micronucleus/aberration tests; experiment: CCRIS mutagenicity studies; conditions: Test System: AMES SALMONELLA TYPHIMURIUM; Strain/Indicator: TA100; Metabolic Activation: S-9; Method: STANDARD PLATE
Active and inactive are the calls of the source. The rule behind the calls is not given here.
Labels: Yes (active), No (inactive)

[
  {
    "molecule": "CCOc1ccc2c(c1)C(C)=CC(C)(C)N2",
    "label": "No"
  },
  {
    "molecule": "Nc1ccc(-c2ccc(N)c([N+](=O)[O-])c2)cc1[N+](=O)[O-]",
    "label": "Yes"
  },
  {
    "molecule": "O=C(N=c1sn(C(=O)c2ccccc2[N+](=O)[O-])c2ccc([N+](=O)[O-])cc12)c1ccccc1[N+](=O)[O-]",
    "label": "Yes"
  },
  {
    "molecule": "N#Cc1cccc(/C=C/c2ccc(N)cc2)c1",
    "label": "Yes"
  },
  {
    "molecule": "COC(=O)c1cc(-c2ccc(N)c(C(=O)OC)c2)ccc1N",
    "label": "No"
  },
  {
    "molecule": "CC(=O)c1ccco1",
    "label": "No"
  },
  {
    "molecule": "COc1ccc(O)cc1",
    "label": "No"
  },
  {
    "molecule": "CC(C)COC(=O)CCCCC(=O)OCC(C)C",
    "label": "No"
  },
  {
    "molecule": "CCCCCCCC(=O)Nc1snc2ccccc12",
    "label": "No"
  },
  {
    "molecule": "COc1cc(Oc2ccc(Cl)cc2Cl)ccc1N",
    "label": "Yes"
  },
  {
    "molecule": "CCN(C)C(=O)Oc1ccc2c(c1)C1(C)CCN(C)C1N2C (centres undefined)",
    "label": "No"
  },
  {
    "molecule": "CC(C)=CCC/C(C)=C/CO",
    "label": "No"
  },
  {
    "molecule": "CCNc1nc(Cl)nc(NC(C)C)n1",
    "label": "No"
  },
  {
    "molecule": "Oc1ccc(Oc2c(Cl)cc(Cl)cc2Cl)cc1",
    "label": "No"
  }
]

----------
system: CCRIS mutagenicity, Ames/micronucleus/aberration tests; assay: CCRIS mutagenicity studies; conditions: Test System: Ames Salmonella typhimurium; Strain/Indicator: TA98; Metabolic Activation: None; Method: Standard plate
Active and inactive are the calls of the source. No rule for the calls is given here.
quantityName: mutagenic call

[
  {
    "recordSmiles": "C[C@]12CC[C@@H]3c4ccc(O)c(O)c4CC[C@H]3[C@@H]1CCC2=O",
    "measuredOn": "CCRIS mutagenicity, Ames/micronucleus/aberration tests",
    "reportedValue": "inactive; negative"
  },
  {
    "recordSmiles": "C=CCBr",
    "measuredOn": "CCRIS mutagenicity, Ames/micronucleus/aberration tests",
    "reportedValue": "inactive; negative"
  },
  {
    "recordSmiles": "Nc1ccc(N)cc1",
    "measuredOn": "CCRIS mutagenicity, Ames/micronucleus/aberration tests",
    "reportedValue": "inactive; negative"
  }
]

----------
tested on: CCRIS mutagenicity, Ames/micronucleus/aberration tests; assay: CCRIS mutagenicity studies; settings: Test System: AMES SALMONELLA TYPHIMURIUM; Strain/Indicator: TA98; Metabolic Activation: RAT, LIVER, S-9, AROCLOR 1254; Method: STANDARD PLATE
The source made the active and inactive calls. No rule for the calls is given here.
Labels: Yes for active, No for inactive

[
  {
    "compound": "O=C(O)c1cccc2cccnc12",
    "label": "No"
  },
  {
    "compound": "COC(=O)Nc1nc2ccc(C(=O)c3ccccc3)cc2[nH]1",
    "label": "Yes"
  },
  {
    "compound": "O=Cc1ccccc1[N+](=O)[O-]",
    "label": "No"
  },
  {
    "compound": "C[C@H](CCC(=O)NCCS(=O)(=O)O)[C@H]1CC[C@H]2[C@@H]3C[C@H](O)[C@@H]4C[C@H](O)CC[C@]4(C)[C@H]3CC[C@]12C",
    "label": "No"
  },
  {
    "compound": "O=[N+]([O-])/C(Br)=C\\c1ccccc1",
    "label": "No"
  },
  {
    "compound": "CCCCC(CC)COC(=O)CCCCC(=O)O (stereo unspecified)",
    "label": "No"
  }
]

----------
Tested on: CCRIS mutagenicity, Ames/micronucleus/aberration tests
Test: CCRIS mutagenicity studies
Conditions: Test System: AMES SALMONELLA TYPHIMURIUM; Strain/Indicator: TA98; Metabolic Activation: NONE; Method: PREINCUBATION
Source text: The CCRIS database contains chemical records with carcinogenicity, mutagenicity, tumor promotion, and tumor inhibition test results. It was developed by the National Cancer Institute (NCI). Data are derived from studies cited in primary journals, current awareness tools, NCI reports, and other sources. Test results have been reviewed by experts in carcinogenesis and mutagenesis. CCRIS provides historical information from the years 1985 - 2011. It is no longer updated. […]
Active and inactive are the calls of the source. No rule for the calls is given here.
Labels: active, inactive

[
  {
    "compound": "O=c1cn[nH]c(=O)[nH]1",
    "label": "inactive"
  },
  {
    "compound": "O=[N+]([O-])c1cccc(-c2ccc(O)c([N+](=O)[O-])c2)c1",
    "label": "active"
  },
  {
    "compound": "CC(C)=CCl",
    "label": "inactive"
  },
  {
    "compound": "C1COC1",
    "label": "inactive"
  },
  {
    "compound": "O=NN1CCCCC1",
    "label": "inactive"
  },
  {
    "compound": "O=[N+]([O-])c1cc([As](=O)(O)O)ccc1O",
    "label": "inactive"
  },
  {
    "compound": "CN(C)c1ccc(N=Nc2ccccc2)cc1",
    "label": "inactive"
  },
  {
    "compound": "CCCCCCCCn1sccc1=O",
    "label": "inactive"
  },
  {
    "compound": "C1O[C@@H]1[C@@H]1CO1",
    "label": "inactive"
  },
  {
    "compound": "O=C(OC1CCCCC1)c1ccccc1C(=O)OC1CCCCC1",
    "label": "inactive"
  },
  {
    "compound": "O=C(OCC1CO1)c1cccc(C(=O)OCC2CO2)c1 (centres undefined)",
    "label": "inactive"
  },
  {
    "compound": "Cc1c2c(cc3ccccc13)-c1ccccc1C1NC21 (centres undefined)",
    "label": "active"
  },
  {
    "compound": "N[C@@H](CSc1c(Cl)c(Cl)c(Cl)c(Cl)c1Cl)C(=O)O",
    "label": "inactive"
  },
  {
    "compound": "Nc1ncnc2c1ncn2Cc1ccc([N+](=O)[O-])cc1",
    "label": "inactive"
  }
]

----------
tested on: CCRIS mutagenicity, Ames/micronucleus/aberration tests; assay: CCRIS mutagenicity studies; settings: Test System: AMES SALMONELLA TYPHIMURIUM; Strain/Indicator: TA98; Metabolic Activation: HAMSTER, LIVER, S-9, AROCLOR 1254 (30%); Method: PREINCUBATION
The source made the active and inactive calls. How the calls were made is not given here.
quantityName: mutagenic call

[
  {
    "molecule": "COc1ccc(OC)c(N=Nc2c(O)ccc3ccccc23)c1",
    "reportedValue": "active; positive"
  },
  {
    "molecule": "O=C1c2c(O)cccc2Cc2cccc(O)c21",
    "reportedValue": "inactive; negative"
  },
  {
    "molecule": "c1ccc(Nc2ccc(Nc3ccccc3)cc2)cc1",
    "reportedValue": "active; positive"
  },
  {
    "molecule": "CCOC(N)=O",
    "reportedValue": "inactive; negative"
  },
  {
    "molecule": "CCC(CO)[N+](=O)[O-] (stereo not given)",
    "reportedValue": "inactive; negative"
  },
  {
    "molecule": "Cc1ccco1",
    "reportedValue": "inactive; negative"
  },
  {
    "molecule": "Clc1ccc(C(Cl)(Cl)Cl)c(Cl)c1",
    "reportedValue": "active; positive"
  },
  {
    "molecule": "O=NO",
    "reportedValue": "inactive; negative"
  },
  {
    "molecule": "N#C/C(N)=C(/N)C#N",
    "reportedValue": "inactive; negative"
  },
  {
    "molecule": "CC(=O)NBr",
    "reportedValue": "inactive; negative"
  }
]

----------
Tested on: CCRIS mutagenicity, Ames/micronucleus/aberration tests
Experiment: CCRIS mutagenicity studies
Conditions: Test System: AMES SALMONELLA TYPHIMURIUM; Strain/Indicator: TA98; Metabolic Activation: NONE; Method: PREINCUBATION
Text: The CCRIS database contains chemical records with carcinogenicity, mutagenicity, tumor promotion, and tumor inhibition test results. It was developed by the National Cancer Institute (NCI). Data are derived from studies cited in primary journals, current awareness tools, NCI reports, and other sources. Test results have been reviewed by experts in carcinogenesis and mutagenesis. CCRIS provides historical information from the years 1985 - 2011. It is no longer updated. […]
The source made the active and inactive calls. No rule for the calls is given here.
Labels: active, inactive

[
  {
    "compound": "Nc1nc2ccccc2[nH]1",
    "measuredOn": "CCRIS mutagenicity, Ames/micronucleus/aberration tests",
    "label": "inactive"
  },
  {
    "compound": "CCC(=O)OCc1ccc([N+](=O)[O-])cc1",
    "measuredOn": "CCRIS mutagenicity, Ames/micronucleus/aberration tests",
    "label": "inactive"
  },
  {
    "compound": "O=S(=O)(O)C1C(O)c2c(cc3ccc4cccc5ccc2c3c45)C(O)C1O (stereo unspecified)",
    "measuredOn": "CCRIS mutagenicity, Ames/micronucleus/aberration tests",
    "label": "inactive"
  },
  {
    "compound": "COC(=O)Nc1cccc(OC(=O)Nc2cccc(C)c2)c1",
    "measuredOn": "CCRIS mutagenicity, Ames/micronucleus/aberration tests",
    "label": "inactive"
  },
  {
    "compound": "CC(C)=O",
    "measuredOn": "CCRIS mutagenicity, Ames/micronucleus/aberration tests",
    "label": "inactive"
  },
  {
    "compound": "CCCCCCC=O",
    "measuredOn": "CCRIS mutagenicity, Ames/micronucleus/aberration tests",
    "label": "inactive"
  },
  {
    "compound": "N#C/C(N)=C(/N)C#N",
    "measuredOn": "CCRIS mutagenicity, Ames/micronucleus/aberration tests",
    "label": "inactive"
  },
  {
    "compound": "O[C@H]1[C@H]2O[C@H]2c2c(c3ccccc3c3ccccc23)[C@@H]1O",
    "measuredOn": "CCRIS mutagenicity, Ames/micronucleus/aberration tests",
    "label": "active"
  },
  {
    "compound": "C=CC(=O)OCCCC",
    "measuredOn": "CCRIS mutagenicity, Ames/micronucleus/aberration tests",
    "label": "inactive"
  },
  {
    "compound": "O=C1c2ccc([N+](=O)[O-])cc2C(=O)N1CCl",
    "measuredOn": "CCRIS mutagenicity, Ames/micronucleus/aberration tests",
    "label": "active"
  },
  {
    "compound": "CC[C@H]1OC(=O)[C@H](C)[C@@H](O[C@H]2C[C@@](C)(OC)[C@@H](O)[C@H](C)O2)[C@H](C)[C@@H](O[C@@H]2O[C@H](C)C[C@H](N(C)C)[C@H]2O)[C@](C)(O)C[C@@H](C)/C(=N\\OCOCCOC)[C@H](C)[C@@H](O)[C@]1(C)O",
    "measuredOn": "CCRIS mutagenicity, Ames/micronucleus/aberration tests",
    "label": "inactive"
  }
]
